Attribution: ChEMBL document CHEMBL1201862

Answer each item with its documented GI50.
test system: M14; assay: NCI tumour cell line growth inhibition, 48 h
Active and inactive are the calls of the source. Cut-off read from the data, not from the text of the source: active = GI50 up to about 1.1 µM and inactive = higher. Non-standard residues stand in square brackets, D forms with d. Residues, ends and D or L forms follow the SMILES beside them. ξ: configuration not given here. *: point of attachment. NMeF = CN[C@@H](Cc1ccccc1)C(=O)O; ξNMeV = CNC(C(=O)O)C(C)C; Boc = CC(C)(C)OC(=O)*; OBn = c1ccc(CO*)cc1

Any idea what GI50 came out for O=C(NNc1ccccc1)c1ccc(Cl)c(Cl)c1 on M14? 0.324 µM (active)

Short answer please: GI50, M14, entry CC(=O)O[C@H]1C[C@H](O[C@H]2[C@@H](O)C[C@H](O[C@H]3[C@@H](O)C[C@H](O[C@H]4CC[C@@]5(C)[C@H](CC[C@@H]6[C@@H]5CC[C@]5(C)[C@@H](C7=CC(=O)OC7)CC[C@]65O)C4)O[C@@H]3C)O[C@@H]2C)O[C@H](C)[C@H]1O[C@@H]1O[C@H](CO)[C@@H](O)[C@H](O)[C@H]1O 0.0634 µM (active)

Param readout = GI50; param system = M14; param query = O=C(NCCCCCCCCNC(=O)c1cnc2ccccc2n1)c1cnc2ccccc2n1 ; response: value > 100 µM (inactive)

Missing value: GI50, M14, entry COC1/C=C/C(C)C(C(C)C(OC)C(C)CCC(=O)C(C)C(C/C=C/N(C)C=O)OC)OC(=O)C=CC2OC2(C)CC(OC)C(OC)C2=CC(=O)O[C@@H](C(C)C(OC)CC(OC)/C=C/C(C)C(O)C1)[C@H]2O (some centres not stated) . Fill in? 0.00333 µM (active)

Request - read-out GI50 | tested on M14 | compound COC(=O)Cc1cc(O)c(C/C=C(\C)CC/C=C(\C)C(O)C(=O)C=C(C)C)cc1O (configuration not stated) 26.3 µM (inactive)

Please state recorded GI50 (tested on M14) of CN1COCc2c1ccc1cc3ccc4c(c3nc21)COCN4S(C)(=O)=O > 100 µM (inactive)

Tell me reported GI50 for CC(C)C(C(=O)N1CCC[C@@H]1C(=O)OCc1ccccc1)N(C)C(=O)C(C(C)C)N(C)C(=O)[C@H](Cc1ccccc1)N(C)C(=O)[C@H](NC(=O)OC(C)(C)C)C(C)C (some centres not stated) (Boc-[dV][NMeF][ξNMeV][ξNMeV][dP]-OBn) , tested with M14. > 100 µM (inactive)

* * *

test system: A549; test: NCI tumour cell line growth inhibition, 48 h
The source made the active and inactive calls. No stated cut-off is given here; in the data, active = GI50 up to about 1.1 µM and inactive = higher. Non-standard residues stand in square brackets, D forms with d. Residues, ends and D or L forms follow the SMILES beside them. ξ: configuration not given here. *: point of attachment. NMeF = CN[C@@H](Cc1ccccc1)C(=O)O; ξNMeV = CNC(C(=O)O)C(C)C; Boc = CC(C)(C)OC(=O)*; OBn = c1ccc(CO*)cc1
Test readout: GI50

Look at this compound and give its reported GI50. CSc1nc(NC(=O)O)c(N(C(C)=O)C(=O)O)c(=O)n1C > 100 µM (inactive)

Find the recorded GI50 belonging to CC(C)C(C(=O)N1CCC[C@@H]1C(=O)OCc1ccccc1)N(C)C(=O)C(C(C)C)N(C)C(=O)[C@H](Cc1ccccc1)N(C)C(=O)[C@H](NC(=O)OC(C)(C)C)C(C)C (some centres undefined) (Boc-[dV][NMeF][ξNMeV][ξNMeV][dP]-OBn) and report it. 6.55 µM (inactive)

Quick one: GI50 of C=C/C=C/NC(=O)OCc1ccccc1 ? > 100 µM (inactive)

Consider the compound COC(=O)/C(C#N)=C1\CCC(O)N1C (centres undefined) and give its measured GI50. > 100 µM (inactive)

* * *

system: IGROV-1; assay: NCI tumour cell line growth inhibition, 48 h
Activity calls are given as the source filed them. Rule as the data show it: active = GI50 up to about 1.1 µM and inactive = higher. Non-standard residues stand in square brackets, D forms with d. Residues, ends and D or L forms follow the SMILES beside them. ξ: configuration not given here. *: point of attachment. NMeF = CN[C@@H](Cc1ccccc1)C(=O)O; ξNMeV = CNC(C(=O)O)C(C)C; Boc = CC(C)(C)OC(=O)*; OBn = c1ccc(CO*)cc1
Pick from YES for active, NO for inactive when you respond.

Lab log entry: [N-]=[N+]=NCc1nc(N)c2c3c(sc2n1)CCCC3 — outcome as called in the assay? NO

# lookup: test call for N#CNC1=NC(CCCC(=O)Nc2cccc([N+](=O)[O-])c2)=C(c2nc3ccccc3[nH]2)C(N)N1 (stereo not given) NO

Fill in: this test's call for CC(=O)Nc1ccc(S(=O)(=O)NN(C)S(=O)(=O)c2ccc(C)cc2)cc1 is ___ NO

Hey, what did the test say about CC(C)C(C(=O)N1CCC[C@@H]1C(=O)OCc1ccccc1)N(C)C(=O)C(C(C)C)N(C)C(=O)[C@H](Cc1ccccc1)N(C)C(=O)[C@H](NC(=O)OC(C)(C)C)C(C)C (stereo not given in full) (Boc-[dV][NMeF][ξNMeV][ξNMeV][dP]-OBn) ? NO

Please let me know the test result on file for CN(C)c1ccc(-c2c(C#N)c(O)n(NS(=O)(=O)c3ccccc3)c(=O)c2C#N)cc1 . NO

Just curious, what result did CC1C/C(=C\c2ccc(O)c(O)c2)C(=O)/C(=C/c2ccc(O)c(O)c2)C1 (stereo not given) get here? NO

Lab log entry: CN1C(=O)NC2(O)c3ccccc3C(=O)C12O (stereo not given) — outcome as called in the assay? NO

Query: recorded result category for CC(=O)O[C@H]1CC[C@@]2(C)C(=CC[C@@H]3C2CC[C@]2(C)C(=O)NC(=O)CC32)C1 (stereo not given in full) in this test NO

For O=C1C(c2c(O)[nH]c3ccc([N+](=O)[O-])cc23)=Nc2ccccc21 , which call appears in the assay record? NO

Hi team, can someone confirm the assay call for C/C=C1/C[C@@H](C)[C@@](C)(O)C(=O)OCC2=CC[N+]3([O-])CC[C@@H](OC1=O)[C@@H]23 (stereo not given in full) [SENECIONINE N-OXIDE] ? NO

Hi team, can someone confirm the assay call for CC(C)CC(NC(=O)C(O)C(N)Cc1ccccc1)C(=O)O (stereo not given) ? NO

// param item: CC1=C2CC(C)(C)CC(=O)C2(C)CCC1=O (stereo not given) ; yields the recorded call NO

Hi, sorry to bother you, what did the test record for CN(C)c1ccc(/C=C2\Cc3ccccc3C2=O)cc1Br ? NO

Hey, what did the test say about O=NN(CCF)C(=O)NC1CCSCC1 ? NO

Could you check what this test reported for COc1cc(C)c2c(=O)c3ccccc3n(C)c2c1 ? NO

Could you kindly confirm the outcome this assay logged for CCC1=CCN(c2cc(C)ccn2)OC1c1ccc(OC)cc1 (stereo not given) ? NO

In this assay, the call recorded for CCOC(=O)CC(c1ccccc1)C(C)(C(=O)OCC)C(=O)OCC (stereo not given) was what? NO

Per the assay record, what outcome was assigned to CN1CCCC(C(=O)OCC(=O)C2(O)CCC3C4CCC5=CC(=O)CCC5(C)C4C(O)CC32C)C1 (stereo not given) ? NO

Record request — test call for N=C(N)NS(=O)(=O)c1ccc(Nc2c3ccccc3nc3c(C(=O)NCCO)cccc23)cc1 YES

Record lookup: outcome of this test for Cc1c(Cl)nc(Cl)nc1Cl ? NO

* * *

system: TK-10; experiment: NCI tumour cell line growth inhibition, 48 h
Activity calls are given as the source filed them. No stated cut-off is given here; in the data, active = GI50 up to about 1.1 µM and inactive = higher.
So I've got a bunch of compounds here, and I need their GI50 values.

Given the compound NCCc1nc(-c2nc(C(=O)O)cs2)cs1 , what is its reported GI50? > 100 µM (inactive)

# query: GI50 of entry CC1(C)OC(CCO)CN1C(=O)OCc1ccccc1 (stereo unspecified) > 100 µM (inactive)

Requested read-out: GI50. Entry: COC(=O)C1=CC2CC1C(S(=O)(=O)c1ccccc1)C2S(=O)(=O)c1ccccc1 (stereo unspecified) 10.4 µM (inactive)

Need GI50, item Cc1cc(NC2=NCCO2)c2c(c1C)CCCC2 33.7 µM (inactive)

So what's the measured GI50 for this one? CC(=O)O[C@H]1CC[C@@]2(C)C(=CC[C@@H]3C2CC[C@]2(C)C(=O)NC(=O)CC32)C1 (stereo partly specified) > 100 µM (inactive)

Which value of GI50 has been reported for Cc1ccc(S(=O)(=O)NC(=O)Nc2nc(Cl)cc(Cl)n2)cc1 in the records? > 100 µM (inactive)

* * *

Give measured GI50 for each item. Keep answers brief.
tested on: SNB-19; experiment: NCI tumour cell line growth inhibition, 48 h
Calls of active or inactive are those of the source. No stated cut-off is given here; in the data, active = GI50 up to about 1.1 µM and inactive = higher.

Fill in: GI50 of C#CCOCn1cc(C)c(=O)[nH]c1=O is ___ > 100 µM (inactive)

Form field: reported GI50 of O=c1c2cc(I)ccc2nc(-c2cccs2)n1-c1ccc(O)cc1 16.6 µM (inactive)

Query (compound): O=C1c2ccccc2C(=O)N1C/C=N/NS(=O)(=O)c1ccc(F)cc1 ; field requested: GI50 > 100 µM (inactive)

# query: GI50 of entry CCCCC/C=C\C=C1\C(=O)C=C[C@@H]1C/C=C\CCCC(=O)O 4.51 µM (inactive)

Give its GI50 value. Item: C[C@H](Nc1nc(N)c(N=O)c(=O)n1C)C(=O)O > 10 µM (inactive)

I am curious: what GI50 value has been reported for CN(C)CCCCN1c2ccccc2Sc2ccc(N=[N+]=[N-])cc21 ? 8.85 µM (inactive)
